The origin of these recorded values is the supplement of paper PMC13207355.

system: E34 (patient-derived glioblastoma stem cells of proneural subtype); test: surviving fraction (nuclei count normalised to DMSO); higher = more cells surviving (less toxic); details: 111.1 nM; exposure time: 72 h
Structures can show the parent of a compound that is named as a salt.
measurement kind: surviving fraction

[
  {
    "compound": "COc1cccc2c(NCc3ccccc3)nc(-n3c(N)nc4ccccc43)nc12",
    "reading": 1.05
  },
  {
    "compound": "Nc1ccn([C@@H]2O[C@H](CO)[C@@H](O)C2(F)F)c(=O)n1 [Gemcitabine HCl]",
    "reading": 0.52
  },
  {
    "compound": "CCOC(=O)C1=C(C)NC(C)=C(C(=O)OCC)C1c1c(F)c(F)c(F)c(F)c1F",
    "reading": 1.16
  }
]

---

system: E34; assay: phenotypic distance (Euclidean, principal components) from DMSO controls (arbitrary units); higher = stronger morphological change; details: 3000 nM; exposure time: 72 h
Structures can show the parent of a compound that is named as a salt.
Output Fulfilled for phenotypic distance not less than 3; output Not fulfilled otherwise.

[
  {
    "compound": "OCCN1C[C@H](O)[C@@H](O)[C@H](O)[C@H]1CO",
    "assigned category": "Not fulfilled"
  },
  {
    "compound": "CC(C)NCC(O)COc1cccc2ccccc12 (stereo not drawn) [Propranolol hydrochloride]",
    "assigned category": "Not fulfilled"
  },
  {
    "compound": "Cc1c(-c2ccc(-c3ccccc3F)cc2)nc2ccc(F)cc2c1C(=O)O [Brequinar sodium salt hydrate]",
    "assigned category": "Not fulfilled"
  },
  {
    "compound": "Clc1ccc(C(Cn2ccnc2)OCc2ccsc2Cl)c(Cl)c1 (stereo not drawn)",
    "assigned category": "Not fulfilled"
  },
  {
    "compound": "C[C@@H]1C[C@@H]([C@H](O)CC2CC(=O)NC(=O)C2)C(=O)[C@@H](C)C1 [Cycloheximide]",
    "assigned category": "Fulfilled"
  },
  {
    "compound": "Nc1ccc(-c2ccc3ncc4ccc(=O)n(-c5cccc(C(F)(F)F)c5)c4c3c2)cn1",
    "assigned category": "Fulfilled"
  },
  {
    "compound": "NCc1ccccc1CC(=O)N[C@@H]1C(=O)N2C(C(=O)O)=C(CSc3nnnn3CC(=O)O)CS[C@H]12 [Ceforanide]",
    "assigned category": "Not fulfilled"
  },
  {
    "compound": "CC(C)C[C@H]1C(=O)N2CCC[C@H]2[C@]2(O)O[C@](NC(=O)[C@@H]3C=C4c5cccc6[nH]c(Br)c(c56)C[C@H]4N(C)C3)(C(C)C)C(=O)N12 [Bromocryptine mesylate]",
    "assigned category": "Not fulfilled"
  }
]

---

system: E21 (patient-derived glioblastoma stem cells of mesenchymal subtype); assay: surviving fraction (nuclei count normalised to DMSO); higher = more cells surviving (less toxic); details: 333.3 nM; exposure time: 72 h
Counter-ions that a name gives are not always drawn.
# maps each entry to its surviving fraction
measurement kind: surviving fraction

[
  {
    "compound": "CC(=O)O[C@H]1C[C@H](O[C@H]2[C@@H](O)C[C@H](O[C@H]3[C@@H](O)C[C@H](O[C@H]4CC[C@@]5(C)[C@H](CC[C@@H]6[C@@H]5C[C@@H](O)[C@]5(C)[C@@H](C7=CC(=O)OC7)CC[C@]65O)C4)O[C@@H]3C)O[C@@H]2C)O[C@H](C)[C@H]1O[C@@H]1O[C@H](CO)[C@@H](O)[C@H](O)[C@H]1O [Lanatoside C]",
    "measurement target": "E21",
    "reading": 0.287
  },
  {
    "compound": "CCC1=C[C@@H]2CN(C1)Cc1c([nH]c3ccccc13)[C@@](C(=O)OC)(c1cc3c(cc1OC)N(C)[C@H]1[C@@](O)(C(=O)OC)[C@H](OC(C)=O)[C@]4(CC)C=CCN5CC[C@]31[C@@H]54)C2 [Vinorelbine Tartrate]",
    "measurement target": "E21",
    "reading": 0.586
  },
  {
    "compound": "Cn1nnc2c(C(N)=O)ncn2c1=O [Temozolomide]",
    "measurement target": "E21",
    "reading": 0.883
  },
  {
    "compound": "Clc1ccc(COC(Cn2ccnc2)c2ccc(Cl)cc2Cl)c(Cl)c1 (centres undefined) [Miconazole]",
    "measurement target": "E21",
    "reading": 1.02
  },
  {
    "compound": "COC(=O)Nc1nc2cc(Sc3ccccc3)ccc2[nH]1 [Fenbendazole]",
    "measurement target": "E21",
    "reading": 0.941
  },
  {
    "compound": "COc1cccc2c1C(=O)c1c(O)c3c(c(O)c1C2=O)C[C@@](O)(C(=O)CO)C[C@@H]3O[C@H]1C[C@H](N)[C@H](O[C@@H]2CCCCO2)[C@H](C)O1 [Pirarubicin]",
    "measurement target": "E21",
    "reading": 0.0649
  },
  {
    "compound": "CC(C)NCC(O)c1ccc(O)c(O)c1 (centres undefined) [Isoproterenol hydrochloride]",
    "measurement target": "E21",
    "reading": 0.957
  },
  {
    "compound": "S=c1[nH]cnc2nc[nH]c12 [Mercaptopurine]",
    "measurement target": "E21",
    "reading": 0.977
  },
  {
    "compound": "COc1cccc2c1C(=O)c1c(O)c3c(c(O)c1C2=O)C[C@@](O)(C(C)=O)C[C@@H]3O[C@H]1C[C@H](N)[C@H](O)[C@H](C)O1 [Daunorubicin hydrochloride]",
    "measurement target": "E21",
    "reading": 0.151
  },
  {
    "compound": "Cc1ccc(NC(=O)c2ccc3c(c2)OCCO3)cc1NC(=O)c1ccc2nc(OCCN3CCCC3)ccc2c1",
    "measurement target": "E21",
    "reading": 0.28
  },
  {
    "compound": "O=C(/C=C\\n1cnc(-c2cc(C(F)(F)F)cc(C(F)(F)F)c2)n1)NNc1cnccn1 [Selinexor]",
    "measurement target": "E21",
    "reading": 0.541
  },
  {
    "compound": "COc1cc2c(c(OC)c1OC)-c1ccc(OC)c(=O)cc1[C@@H](NC(C)=O)CC2 [Colchicine]",
    "measurement target": "E21",
    "reading": 0.136
  },
  {
    "compound": "CN(C(=O)CN(CCO)CC(=O)N(C)C(C)(C)Cc1ccccc1)C(C)(C)Cc1ccccc1 [Oxethazaine]",
    "measurement target": "E21",
    "reading": 1.12
  },
  {
    "compound": "CC(C)NCC(O)c1cc(O)cc(O)c1 (centres undefined) [Metaproterenol sulfate, orciprenaline sulfate]",
    "measurement target": "E21",
    "reading": 1.13
  }
]

---

system: FT3469 (normal neural stem cell line); test: phenotypic distance (Euclidean, principal components) from DMSO controls (arbitrary units); higher = stronger morphological change; conditions: 4.11523 nM; exposure time: 72 h

[
  {
    "compound": "C/C=C(\\C)C(=O)N[C@@H](c1ccccc1)[C@@H](O)C(=O)O[C@H]1C[C@@]2(O)[C@@H](OC(=O)c3ccccc3)[C@@H]3[C@]4(OC(C)=O)CO[C@@H]4C[C@H](O)[C@@]3(C)C(=O)[C@H](OC(C)=O)C(=C1C)C2(C)C",
    "phenotypic distance": 2.71
  },
  {
    "compound": "CC(C)(C)CC(C)(C)c1ccc(OCCOCC[N+](C)(C)Cc2ccccc2)cc1 [Benzethonium chloride]",
    "phenotypic distance": 0.694
  },
  {
    "compound": "O=c1c2ccccc2[se]n1-c1ccccc1",
    "phenotypic distance": 0.678
  },
  {
    "compound": "Nc1ncn([C@@H]2O[C@H](CO)[C@@H](O)[C@H]2O)c(=O)n1",
    "phenotypic distance": 1.08
  },
  {
    "compound": "O=C(O)c1ccc(-c2c[nH]c3ncc(-c4ccccc4)cc23)cc1C1CCCC1",
    "phenotypic distance": 0.839
  },
  {
    "compound": "CC(C)C[C@H](NC(=O)[C@H](Cc1ccccc1)NC(=O)c1cnccn1)B(O)O",
    "phenotypic distance": 5.9
  }
]

---

Entries and their measured phenotypic distance follow.
system: E28 (patient-derived glioblastoma stem cells of classical subtype); experiment: phenotypic distance (Euclidean, principal components) from DMSO controls (arbitrary units); higher = stronger morphological change; settings: 333.3 nM; exposure time: 72 h
measurement kind: phenotypic distance

[
  {
    "compound": "Nc1nc2n[nH]nc2c(=O)[nH]1",
    "reading": 1.21
  },
  {
    "compound": "Clc1ccc(COC(Cn2ccnc2)c2ccc(Cl)cc2Cl)cc1 (stereo not given) [Econazole nitrate]",
    "reading": 0.803
  },
  {
    "compound": "COc1cc(N)c(Cl)cc1C(=O)NC1CCN(CCCOc2ccc(F)cc2)CC1OC (stereo not given) [Cisapride]",
    "reading": 1.1
  },
  {
    "compound": "C[C@@H](O[C@H]1OCCN(Cc2n[nH]c(=O)[nH]2)[C@H]1c1ccc(F)cc1)c1cc(C(F)(F)F)cc(C(F)(F)F)c1 [Aprepitant]",
    "reading": 0.788
  },
  {
    "compound": "CCCCCC[C@H]1C(=O)O[C@H](C)[C@H](NC(=O)c2cccc(NC=O)c2O)C(=O)O[C@@H](C)[C@@H]1OC(=O)CC(C)C [Antimycin A]",
    "reading": 1.38
  },
  {
    "compound": "Cc1nc2ccccn2c(=O)c1CCN1CCC(C(=O)c2ccc(F)cc2)CC1",
    "reading": 0.52
  },
  {
    "compound": "Cc1cccn2c(=O)c(-c3nnn[nH]3)cnc12",
    "reading": 0.613
  },
  {
    "compound": "O=c1[nH]c(=O)n([C@H]2C[C@H](O)[C@@H](CO)O2)cc1I",
    "reading": 0.922
  },
  {
    "compound": "OCCN1CCN(CCCN2c3ccccc3Sc3ccc(Cl)cc32)CC1",
    "reading": 0.749
  },
  {
    "compound": "CCc1c2c(nc3ccc(OC(=O)N4CCC(N5CCCCC5)CC4)cc13)-c1cc3c(c(=O)n1C2)COC(=O)[C@]3(O)CC",
    "reading": 1.51
  }
]
